- targetOrTestSystem: T1, hIL2Rg-Fc (SinoBiological cat#10555) (human, UniProt P31785 23-254, limits assumed)
- T1 construct: Bought Fc fusion (SinoBiological cat#10555); P31785 is printed for hCD132 in the background; also called human IL2Rg-Fc; not shown: Fc of the bought fusion protein
- T1 sequence (looked up): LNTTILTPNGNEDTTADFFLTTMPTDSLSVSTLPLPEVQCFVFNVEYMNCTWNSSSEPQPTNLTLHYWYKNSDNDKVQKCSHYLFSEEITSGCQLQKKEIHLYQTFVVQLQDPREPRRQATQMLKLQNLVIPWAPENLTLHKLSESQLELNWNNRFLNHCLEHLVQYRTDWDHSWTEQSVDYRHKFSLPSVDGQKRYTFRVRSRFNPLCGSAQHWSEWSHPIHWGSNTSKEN
- methodSummary: SPR (Biacore T200), Fc-fused ligand captured on chip, dual VHH as analyte, 1:1 Langmuir fit
Measured Kd by item
Just the number please, in nM, no unit attached.

### Prompt Kd lookup needed for DR468(DR240-DR234) (bispecific antibody, Anti-hIL10Ra/hIL2Rg dual VHH with ASH6 handle; also called G8) QVQLQESGGGSVQAGGSLRLSCGASGYTYSSYCMGWFRQVPGKEREGVAVIDSDGSTSYADSVKGRFTISKDNGKNTLYLQMNSLKPEDTAMYYCAADLGHYRPPCGVLYLGMDYWGKGTQVTVSSGGGSQVQLQESGGGSVQAGGSLRLSCVASGYTFSSYCMGWFRQAPGKEREGVAALGGGSTYYADSVKGRFTISQDNAKNTLYLQMNSLKPEDTAMYYCAAAWVACLEFGGSWYDLARYKHWGQGTQVTVSSASHHHHHH , thanks.
### Response 8.5

### Prompt Request: DR438(DR235-DR234) (bispecific antibody, Anti-hIL10Ra/hIL2Rg dual VHH with ASH6 handle; also called D12) QVQLQESGGGSVQAGGSLRLSCAASRYLYSIDYMAWFRQSPGKEREPVAVIYTASGATFYPDSVKGRFTISQDNAKMTVYLQMNSLKSEDTAMYYCAAVRKTDSYLFDAQSFTYWGQGTQVTVSSGGGSQVQLQESGGGSVQAGGSLRLSCVASGYTFSSYCMGWFRQAPGKEREGVAALGGGSTYYADSVKGRFTISQDNAKNTLYLQMNSLKPEDTAMYYCAAAWVACLEFGGSWYDLARYKHWGQGTQVTVSSASHHHHHH
### Response 2.7

### Prompt Request: DR392(DR229-DR236) (bispecific antibody, Anti-hIL10Ra/hIL2Rg dual VHH with ASH6 handle; also called A7) QVQLQESGGGLVQPGGSLRLSCTASGFSFSSYPMTWARQAPGKGLEWVSTIASDGGSTAYAASVEGRFTISRDNAKSTLYLQLNSLKTEDTAMYYCTKGYGDGTPAPGQGTQVTVSSGGGSQVQLQESGGGSVQAGGSLRLSCAASRFTYSSYCMGWFRQAPGKEREGVASIDSDGSTSYTDSVKGRFTISKDNAKNTLYLQMNSLKPEDTAMYYCALDLMSTVVPGFCGFLLSAGMDYWGKGTQVTVSSASHHHHHH
### Response 3.6

### Prompt Request: DR437(DR235-DR233) (bispecific antibody, Anti-hIL10Ra/hIL2Rg dual VHH with ASH6 handle; also called D6) QVQLQESGGGSVQAGGSLRLSCAASRYLYSIDYMAWFRQSPGKEREPVAVIYTASGATFYPDSVKGRFTISQDNAKMTVYLQMNSLKSEDTAMYYCAAVRKTDSYLFDAQSFTYWGQGTQVTVSSGGGSQVQLQESGGGSVQAGGSLRLSCTASGFTFDDSDMGWYRQAPGNECELVSTISSDGSTYYADSVKGRFTISQDNAKNTVYLQMNSLKPEDTAVYYCAAEPRGYYSNYGGRRECNYWGQGTQVTVSSASHHHHHH
### Response 27.5

### Prompt Request: DR471(DR241-DR231) (bispecific antibody, Anti-hIL10Ra/hIL2Rg dual VHH with ASH6 handle; also called G3) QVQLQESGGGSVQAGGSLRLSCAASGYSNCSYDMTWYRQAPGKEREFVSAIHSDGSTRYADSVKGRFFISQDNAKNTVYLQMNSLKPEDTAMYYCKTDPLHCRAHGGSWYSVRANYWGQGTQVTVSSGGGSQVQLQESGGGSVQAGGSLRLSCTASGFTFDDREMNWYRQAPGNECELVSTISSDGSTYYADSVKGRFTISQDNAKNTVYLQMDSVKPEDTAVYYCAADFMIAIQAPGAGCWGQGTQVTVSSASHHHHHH
### Response 16.6

Values from patent US20250163162A1
